target under test: T1, Peptide fragment of nAchR (Nicotinic acetylcholine receptor), 32 mer, biotinylated (N-terminal biotin)
T1 construct: Synthesised by Anigen; Immobilised on a streptavidin chip for SPR; also called biotinylated nAchR; biotinylated-nAchR peptide
T1 peptide: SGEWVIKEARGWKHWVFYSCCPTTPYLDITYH
measurement notes: SPR (BIAcore X), biotinylated nAchR peptide on streptavidin chip, synthetic peptide as analyte
parameter measured: pKd
pKd (log units): -log10 of the concentration in mol/L.

For the binder EASFWLGSWTWENGKWTWKGKGTLNR [Peptide 1 specific to nAchR (Table 3d), bipodal-peptide binder] , report pKd.
7.14
